Study system: NADPH oxidase 4 (Homo sapiens)
Protocol text: NOX4-dependent H2O2 signal modulators, primary screen, NOX inhibitor project, cell-based, HEK293-NOX4, tetracycline-induced, Amplex Red fluorescence (AID 1160)
Assay conditions: 45 min, higher = more signal, called active from +8 up or from −8 down
Mark Y for reported z-score of 0.7 or greater; mark N for anything smaller.

{"columns": ["Compound", "Class label"],
 "data": [
  ["CC(C)C[C@@H]1NC(=O)[C@H](CC(C)C)NC(=O)[C@@]23C(=O)N[C@@H](Cc4ccccc4)C2[C@H](C)[C@@]2(C)O[C@H]2C3/C=C/CC/C=C/CNC1=O (some centres not stated)", "N"],
  ["COc1cc(CO)cc(I)c1O[C@H]1C=C(C(=O)NCCO)C[C@@H](N(CC2CCCCC2)C(=O)c2cc3ccccc3oc2=O)[C@@H]1O", "Y"],
  ["COc1ccc([Si](C)(C)[C@H]2[C@H](CCO)O[C@@]3(C(=O)N(Cc4ccccc4)c4ccc(N5C(=O)c6cccc7cccc5c67)cc43)[C@@H]2C)cc1", "N"],
  ["C=CCC1=C[C@H]2[C@H]([C@@H]3C=C[C@]2(CC=C)C(=O)[C@]32CO2)[C@@]2(CO2)C1=O", "N"],
  ["COCCCNC(=O)[C@@H]1c2ccccc2C(=O)N(CC23CC4CC(CC(C4)C2)C3)[C@H]1c1ccc(CO)cc1", "N"],
  ["COCCOC(=O)N1C(=O)[C@@]2(c3cc(C#CC4(O)CCCCCC4)ccc31)[C@H](C(=O)N1CCCCCCC1)[C@H]1C(=O)O[C@H](c3ccccc3)[C@H](c3ccccc3)N1[C@@H]2c1ccc(O)cc1", "N"],
  ["C=CCNC(=O)[C@@H]1[C@H]2C(=O)O[C@H](c3ccccc3)[C@H](c3ccccc3)N2[C@H](c2ccc(OCCO)cc2)[C@@]12C(=O)N(C(=O)OCCOC)c1ccc(C#CC3(O)CCCCCC3)cc12", "Y"],
  ["CCCC/C=C/[C@H]([C@@H](O)Cc1ccccc1)N(CC#Cc1ccccc1)Cc1ccccc1Br", "N"],
  ["Cc1ccccc1C(O)C1C=CC2C(=O)N(c3ccccc3)C(=O)C2N1Nc1ccc(C#N)cc1 (configuration not stated)", "N"],
  ["CO[C@H]1COC(=O)[C@@H](Cc2ccccc2)NC(=O)[C@@H](C)COC(=O)CC=C[C@@H]1C", "Y"],
  ["CO[C@H]1COC(=O)CC=C[C@H](C)[C@@H](OC)COC(=O)[C@H](Cc2ccccc2)NC(=O)CC=C[C@@H]1C", "N"],
  ["NC(=O)NCC#Cc1ccc2c(c1)[C@]1(C(=O)N2)[C@H](C(N)=O)[C@H]2C(=O)O[C@H](c3ccccc3)[C@H](c3ccccc3)N2[C@@H]1c1ccccc1OCCO", "Y"],
  ["C[C@@H]1C=CCC(=O)OC[C@H]2O[C@@H](C=C[C@@H]2O)[C@H](C)C=CCC(=O)OC[C@H]2O[C@H]1C=C[C@@H]2O", "N"],
  ["C#CCNC(/C=C/c1ccccc1)CO (configuration not stated)", "Y"],
  ["COc1ccc([Si](C)(C)[C@@H]2[C@@H](CCO)O[C@]3(C(=O)N(Cc4ccccc4)c4ccccc43)[C@H]2C)cc1", "N"],
  ["CCCCO[C@H]1C[C@H]2C(Br)=C[C@@]1(CO)C(=O)[C@]21CO1", "N"],
  ["COCCOC(=O)N1C(=O)[C@@]2(c3cc(C#CCCO)ccc31)[C@H](C(=O)N1CCCCCCC1)[C@H]1C(=O)O[C@H](c3ccccc3)[C@H](c3ccccc3)N1[C@@H]2c1ccc(O)cc1", "Y"],
  ["COC(=O)Cn1c(C(=O)N2CCCC2)cc2c1C[C@H]1CN(C(=O)c3ccccc3)[C@@](Cc3ccc(OC)cc3)(C(=O)OC)[C@@H]21", "Y"],
  ["CCOC(=O)C1=C[C@@H](c2ccccc2)N(S(=O)(=O)c2ccc(C)cc2)[C@H]1c1ccc(F)cc1", "Y"],
  ["COc1cccc([C@@H]2[C@@H](C)CC[C@H]3C(=O)N(C)[C@@H](C(C)C)C(=O)N23)c1", "N"],
  ["C=C(COC)/C(=C/C[C@H](OC(C)=O)c1ccc(OCCO)cc1)c1cnc2ccccc2c1", "Y"],
  ["CO[C@@H]1COC(=O)[C@H](C)NC(=O)CC=C[C@@H](C)[C@H](OC)COC(=O)[C@H](C)NC(=O)CC=C[C@H]1C", "N"],
  ["COCCCNC(=O)[C@@]1(c2ccc([N+](=O)[O-])cc2)CC(=O)N(C2CCCCC2)[C@@H]1c1ccc(CO)cc1", "Y"],
  ["COc1ccc([Si](C)(C)[C@H]2[C@H](CCO)O[C@@]3(C(=O)N(Cc4ccc(N5CCCCC5=O)cc4)c4ccccc43)[C@@H]2C)cc1", "N"],
  ["CCCC=C(CCC)[C@@H](NS(=O)(=O)c1ccc(-c2ccccc2)cc1)c1ccc(C(=O)OC)cc1", "N"],
  ["C[C@@H]1NC(=O)[C@H](Cc2ccccc2)NC(=O)[C@@]23C(=O)N[C@@H](Cc4ccccc4)C2[C@H](C)[C@@]2(C)O[C@H]2C3/C=C/C/C=C\\CNC1=O (some centres not stated)", "N"],
  ["C#CCCCON=C1C[C@@H](O)[C@@H](O)[C@@H]2[C@@H]3C(=O)N(Cc4ccc5c(c4)OCO5)C(=O)[C@@H]3CC[C@H]12", "Y"]
]}

----------
Test system: glycogen synthase kinase-3 (GSK3A per assay name; protocol says GSK3B)
Protocol text: GSK3 binders on small-molecule microarrays, primary screen, biochemical, small-molecule microarray, 635 nm fluorescence, GSK3A (AID 1103); also: the record names both GSK3A and GSK3B
Assay conditions: small-molecule microarray binding, fluorescence 635 nm; higher = more signal
Assay metric: composite z-score

{"columns": ["Molecule", "Measurement"],
 "data": [
  ["CC(C)(C)OC(=O)CC[C@]1(C(=O)N2CCCCC2)N=C(c2ccc(OCCCO)cc2)O[C@H]1c1ccccc1", 1.29],
  ["O=C1C2C=CC(C(O)C#Cc3ccccc3)N(Nc3ccccc3)C2C(=O)N1c1ccccc1 (centres undefined)", -0.208],
  ["C[C@H]1COC(=O)[C@H](Cc2ccccc2)NC(=O)[C@@H](C)COC(=O)[C@H](Cc2ccccc2)NC1=O", 0.847],
  ["[N-]=[N+]=NCc1ccccc1C[C@@]1(C(=O)N2CCOCC2)N=C(c2ccc(OCCCO)cc2)O[C@@H]1c1ccccc1N=[N+]=[N-]", 0.683]
]}

----------
z-score: recorded values
Study system: NADPH oxidase 5 (Homo sapiens) (UniProt Q96PH1)
Sequence (Q96PH1 whole entry, looked up): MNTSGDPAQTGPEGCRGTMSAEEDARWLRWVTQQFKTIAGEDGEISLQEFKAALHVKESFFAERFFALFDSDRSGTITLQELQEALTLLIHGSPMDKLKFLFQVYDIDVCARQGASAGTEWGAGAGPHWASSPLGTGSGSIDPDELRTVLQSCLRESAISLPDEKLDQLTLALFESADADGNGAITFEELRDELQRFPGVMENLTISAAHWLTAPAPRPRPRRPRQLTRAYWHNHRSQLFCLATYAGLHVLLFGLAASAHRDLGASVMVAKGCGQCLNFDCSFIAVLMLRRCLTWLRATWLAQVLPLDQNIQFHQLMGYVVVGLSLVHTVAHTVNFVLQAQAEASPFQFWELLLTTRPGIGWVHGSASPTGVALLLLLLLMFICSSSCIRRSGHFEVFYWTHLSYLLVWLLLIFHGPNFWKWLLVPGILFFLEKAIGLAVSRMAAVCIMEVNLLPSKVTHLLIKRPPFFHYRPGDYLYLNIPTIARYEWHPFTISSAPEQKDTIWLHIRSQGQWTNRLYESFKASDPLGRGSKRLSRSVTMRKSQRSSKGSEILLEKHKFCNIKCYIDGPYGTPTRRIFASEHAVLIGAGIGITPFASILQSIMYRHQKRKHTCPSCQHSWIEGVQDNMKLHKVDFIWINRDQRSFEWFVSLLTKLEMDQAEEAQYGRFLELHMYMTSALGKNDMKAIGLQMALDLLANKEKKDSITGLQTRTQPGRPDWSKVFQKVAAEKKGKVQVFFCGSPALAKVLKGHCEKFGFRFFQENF
Protocol text: NOX5-dependent H2O2 signal modulators, primary screen, NOX inhibitor project, cell-based, HEK293-NOX5, Amplex Red fluorescence (AID 1161)
Assay conditions: HEK293-NOX5, ionomycin, 45 min, higher = more signal
Assay metric: z-score

{"columns": ["Line notation", "Assay metric", "Measurement"],
 "data": [
  ["CO[C@H]1O[C@H](CO)[C@@H](OC(=O)CCc2ccccc2)[C@@H]2OC(=O)[C@H](Cc3cccc(Br)c3)C/C=C/C[C@@H](Cc3cccc(Br)c3)C(=O)O[C@@H]12", "z-score", 1.28],
  ["O=C1c2ccccc2[C@](Cc2ccccc2I)(C(=O)NCC(F)(F)F)[C@H](c2ccc(CO)cc2)N1Cc1ccccc1C(F)(F)F", "z-score", 2.32],
  ["CC(C)(C)OC(=O)CC[C@@]1(C(=O)NCc2ccccc2)N=C(c2ccc(OCCCO)cc2)O[C@@H]1c1ccccc1", "z-score", -0.58],
  ["C=CCc1cccc([C@@H]2[C@@H](C)CC[C@H]3C(=O)N4[C@H](c5cccc(CC=C)c5)[C@@H](C)CC[C@H]4C(=O)N23)c1", "z-score", -1.48],
  ["COCCOC(=O)N1C(=O)[C@@]2(c3cc(C#CCNC(N)=O)ccc31)[C@H](c1ccc(OCCO)cc1)N1[C@H](c3ccccc3)[C@H](c3ccccc3)OC(=O)[C@H]1[C@@H]2C(=O)Nc1nc2ccccc2s1", "z-score", 1.12],
  ["Cc1ccc(S[C@]2(C(=O)NCCCN(C)C)CC(=O)N(C3CCCCC3)[C@@H]2c2ccc(CO)cc2I)cc1", "z-score", 0.549]
]}

----------
Study system: Neurogenic locus notch homolog protein 3 (Homo sapiens) (UniProt Q9UM47)
Sequence (Q9UM47 whole entry, looked up): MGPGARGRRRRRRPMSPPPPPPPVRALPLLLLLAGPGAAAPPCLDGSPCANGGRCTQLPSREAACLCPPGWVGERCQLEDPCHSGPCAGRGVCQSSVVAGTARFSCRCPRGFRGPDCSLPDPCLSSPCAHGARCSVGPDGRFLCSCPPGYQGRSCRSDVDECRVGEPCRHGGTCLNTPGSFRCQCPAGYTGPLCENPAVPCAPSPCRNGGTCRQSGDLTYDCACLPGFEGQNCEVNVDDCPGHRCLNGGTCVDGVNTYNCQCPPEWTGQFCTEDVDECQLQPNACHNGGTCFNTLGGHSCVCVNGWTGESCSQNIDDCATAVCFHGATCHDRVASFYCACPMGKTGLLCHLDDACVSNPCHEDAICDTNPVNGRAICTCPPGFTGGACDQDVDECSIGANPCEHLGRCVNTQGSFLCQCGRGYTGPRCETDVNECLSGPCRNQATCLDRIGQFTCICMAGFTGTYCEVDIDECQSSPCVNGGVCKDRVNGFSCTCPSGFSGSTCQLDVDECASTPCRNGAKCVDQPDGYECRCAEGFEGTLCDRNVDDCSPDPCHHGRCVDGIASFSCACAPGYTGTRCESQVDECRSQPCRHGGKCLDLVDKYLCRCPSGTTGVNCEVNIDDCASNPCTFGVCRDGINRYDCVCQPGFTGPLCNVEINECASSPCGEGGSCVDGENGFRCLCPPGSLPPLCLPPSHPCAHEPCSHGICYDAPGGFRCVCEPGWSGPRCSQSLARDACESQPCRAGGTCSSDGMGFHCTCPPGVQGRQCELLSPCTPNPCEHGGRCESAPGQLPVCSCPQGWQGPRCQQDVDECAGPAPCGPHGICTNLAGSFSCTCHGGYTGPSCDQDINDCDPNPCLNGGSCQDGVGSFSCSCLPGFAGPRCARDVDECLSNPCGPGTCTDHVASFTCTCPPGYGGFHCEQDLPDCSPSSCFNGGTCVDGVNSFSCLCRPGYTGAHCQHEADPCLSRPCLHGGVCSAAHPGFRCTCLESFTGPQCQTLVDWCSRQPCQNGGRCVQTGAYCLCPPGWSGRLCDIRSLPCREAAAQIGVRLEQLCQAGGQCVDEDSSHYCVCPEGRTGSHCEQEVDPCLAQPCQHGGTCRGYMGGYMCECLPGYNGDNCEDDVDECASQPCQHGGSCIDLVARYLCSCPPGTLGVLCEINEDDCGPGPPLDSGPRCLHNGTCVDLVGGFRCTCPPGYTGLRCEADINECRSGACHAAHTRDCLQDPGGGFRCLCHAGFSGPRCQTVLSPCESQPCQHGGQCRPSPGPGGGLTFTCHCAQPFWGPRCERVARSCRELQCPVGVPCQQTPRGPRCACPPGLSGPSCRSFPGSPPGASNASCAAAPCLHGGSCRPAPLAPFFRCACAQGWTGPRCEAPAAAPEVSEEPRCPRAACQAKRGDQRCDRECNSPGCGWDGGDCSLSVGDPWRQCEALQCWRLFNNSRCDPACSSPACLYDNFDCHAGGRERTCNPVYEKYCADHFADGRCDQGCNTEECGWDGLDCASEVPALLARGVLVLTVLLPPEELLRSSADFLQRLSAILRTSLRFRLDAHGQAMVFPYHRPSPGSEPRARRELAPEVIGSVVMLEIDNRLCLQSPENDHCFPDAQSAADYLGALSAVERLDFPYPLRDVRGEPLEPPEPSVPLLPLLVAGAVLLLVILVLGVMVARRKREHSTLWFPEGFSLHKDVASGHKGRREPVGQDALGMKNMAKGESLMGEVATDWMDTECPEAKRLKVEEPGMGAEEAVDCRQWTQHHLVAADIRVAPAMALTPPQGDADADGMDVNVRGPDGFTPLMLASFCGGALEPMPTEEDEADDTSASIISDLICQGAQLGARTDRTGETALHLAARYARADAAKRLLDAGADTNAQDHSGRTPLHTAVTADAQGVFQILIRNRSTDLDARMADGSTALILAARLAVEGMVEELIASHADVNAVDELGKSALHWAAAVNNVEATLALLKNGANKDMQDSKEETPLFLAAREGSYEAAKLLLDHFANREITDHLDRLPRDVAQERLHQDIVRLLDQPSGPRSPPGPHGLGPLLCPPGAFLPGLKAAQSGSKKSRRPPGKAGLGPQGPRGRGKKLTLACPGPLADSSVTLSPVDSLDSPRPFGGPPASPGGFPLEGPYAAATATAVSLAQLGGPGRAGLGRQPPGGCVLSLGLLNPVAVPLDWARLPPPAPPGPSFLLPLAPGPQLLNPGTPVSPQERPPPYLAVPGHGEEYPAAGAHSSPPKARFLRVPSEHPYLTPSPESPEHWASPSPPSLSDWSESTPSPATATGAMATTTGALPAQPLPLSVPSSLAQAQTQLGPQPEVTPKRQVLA
Protocol text: NOTCH3 binders on small-molecule microarray, primary screen, biochemical, 635/667 nm fluorescence (AID 1096)
Assay conditions: NOTCH3 binding, 635 nm fluorescence, higher = more signal
Examples of compounds with documented composite z-score follow.

{"columns": ["Compound", "Study system", "composite z-score"],
 "data": [
  ["C=CCC(OC(C)=O)[C@@H]1[C@@H](N(Cc2cc3ccccc3o2)C(=O)c2ccc(C)cc2)c2cc(OCCCO)ccc2N1C(=O)c1ccc2ccccc2n1 (some centres undefined)", "Neurogenic locus notch homolog protein 3 (Homo sapiens) (UniProt Q9UM47)", 0.197],
  ["C#CCCCON=C1C[C@@H](O)[C@@H](O)[C@@H]2[C@@H]3C(=O)N(Cc4ccc5c(c4)OCO5)C(=O)[C@@H]3CC[C@H]12", "Neurogenic locus notch homolog protein 3 (Homo sapiens) (UniProt Q9UM47)", 0.513],
  ["CC(C)C[C@@H]1NC(=O)[C@H]2C[C@@H](C(=O)NCCCCCC[N+](C)(C)C)[C@@H](c3ccc(O)cc3)N2C1=O", "Neurogenic locus notch homolog protein 3 (Homo sapiens) (UniProt Q9UM47)", 0.275],
  ["O=C/C=C/c1ccc(/C=C/c2ccccc2)cc1", "Neurogenic locus notch homolog protein 3 (Homo sapiens) (UniProt Q9UM47)", -1.2]
]}
